- Target under test: T1, NHERF1 PDZ1 E43D (1–120) (human, UniProt O14745 1-120, E43D)
- T1 construct: the methods describe the mutants in PDZ1 (11-120), so 1-120 may be a misprint of 11-120; also called Glu43Asp; source: E. coli BL21 (DE3), purified (Ni-NTA-agarose)
- T1 sequence (looked up): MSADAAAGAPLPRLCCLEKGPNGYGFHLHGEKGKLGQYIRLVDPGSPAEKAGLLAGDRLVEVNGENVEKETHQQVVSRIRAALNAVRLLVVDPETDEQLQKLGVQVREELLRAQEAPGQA
- Protocol summary: ITC; 25°C; 10 mM Hepes (pH 7.5), 10 mM NaCl, 0.5 mM EDTA, 0.5 mM beta-mercaptoethanol; 25 uM PDZ protein in the cell, NPT2A (200–250 uM) titrated in 19 injections of 2 ul
- Measurement parameters: both partners purified
Quantity name: Kd (µM)
One number for each entry, in µM.

If you can, please state the reported Kd value of ELPPATPSPRLALPAHHNATRL (type II sodium-dependent phosphate co-transporter (NPT2A, SLC34A1), 22-residue carboxy-terminal fragment; Kept apart from m1 for that reason; also called ligand NPT2A; source: synthetic peptide) [NPT2A peptide (ligand titrated in ITC)] .
10.4

Hey, just so you know, these numbers are from paper PMC4466390.
